- Test system: Staphylococcus aureus
- assay name: Antibacterial activity against Staphylococcus aureus after 24 hrs by twofold serial dilution method
- Format: functional
Would you kindly list MIC for each of these molecules?
Answers are plain numbers, in µg/mL.

Before answering, review these 5 worked examples.
CC1(C)/C(=N/N2C(=O)CNC2=S)CC(c2ccc(F)cc2)NC1c1ccc(F)cc1 (centres undefined) :: 12.5
CC1/C(=N/N2C(=O)CNC2=S)CC(c2ccccc2)NC1c1ccccc1 (centres undefined) :: 200
COc1ccc(C2CC(=NN3C(=O)CNC3=S)CC(c3ccc(OC)cc3)N2)cc1 (centres undefined) :: 50
CC1/C(=N/N2C(=O)CNC2=S)CC(c2ccc(F)cc2)NC1c1ccc(F)cc1 (centres undefined) :: 6.25
CC1(C)/C(=N/N2C(=O)CNC2=S)CC(c2ccc(Cl)cc2)NC1c1ccc(Cl)cc1 (centres undefined) :: 25

For every record below, what is its MIC?
1. Cc1ccc(C2C/C(=N\N3C(=O)CNC3=S)C(C)C(c3ccc(C)cc3)N2)cc1 (centres undefined)
2. Cc1ccc(C2C/C(=N\N3C(=O)CNC3=S)C(C)(C)C(c3ccc(C)cc3)N2)cc1 (centres undefined)
3. CC1/C(=N/N2C(=O)CNC2=S)CC(c2ccc(Cl)cc2)NC1c1ccc(Cl)cc1 (centres undefined)

Completion:
1: 25; 2: 25; 3: 6.25

Prompt: Sample O=C1CNC(=S)N1N=C1CC(c2ccc(Cl)cc2)NC(c2ccc(Cl)cc2)C1 (centres undefined) — what was its MIC?
Completion: 50

---

- Tested on: Candida
- assay name: Antifungal activity against Candida 51 after 72 to 96 hrs by twofold serial dilution method
- Format: functional
I'd be grateful if you could share measured MIC for these entries.
Give bare numbers, in µg/mL.

Below, each entry is followed by its recorded MIC result.
CC1(C)/C(=N/N2C(=O)CNC2=S)CC(c2ccc(F)cc2)NC1c1ccc(F)cc1 (stereo not given) :: 50
Cc1ccc(C2C/C(=N\N3C(=O)CNC3=S)C(C)C(c3ccc(C)cc3)N2)cc1 (stereo not given) :: 12.5
CC1(C)/C(=N/N2C(=O)CNC2=S)CC(c2ccccc2)NC1c1ccccc1 (stereo not given) :: 50

Hello, I would appreciate it if you could give MIC for each entry below.
1. O=C1CNC(=S)N1N=C1CC(c2ccc(Cl)cc2)NC(c2ccc(Cl)cc2)C1 (stereo not given)
2. CC1/C(=N/N2C(=O)CNC2=S)CC(c2ccc(F)cc2)NC1c1ccc(F)cc1 (stereo not given)

Completion:
25
6.25

---

- Test system: Vibrio cholerae
- assay name: Antibacterial activity against Vibrio cholerae after 24 hrs by twofold serial dilution method
- Format: functional
Please respond with reported MIC for every item in the list.
Give bare numbers, in µg/mL.

Worked set:
O=C1CNC(=S)N1N=C1CC(c2ccc(Cl)cc2)NC(c2ccc(Cl)cc2)C1 (stereo not given) :: 6.25
COc1ccc(C2CC(=NN3C(=O)CNC3=S)CC(c3ccc(OC)cc3)N2)cc1 (stereo not given) :: 100
Cc1ccc(C2C/C(=N\N3C(=O)CNC3=S)C(C)(C)C(c3ccc(C)cc3)N2)cc1 (stereo not given) :: 25
COc1ccc(C2C/C(=N\N3C(=O)CNC3=S)C(C)C(c3ccc(OC)cc3)N2)cc1 (stereo not given) :: 25

--- query ---
Prompt: Return reported MIC; argument: Cc1ccc(C2CC(=NN3C(=O)CNC3=S)CC(c3ccc(C)cc3)N2)cc1 (stereo not given)
Completion: 100

---

- System: Candida albicans
- assay name: Antifungal activity against Candida albicans after 72 to 96 hrs by twofold serial dilution method
- Format: functional
endpoint name: MIC

COc1ccc(C2C/C(=N\N3C(=O)CNC3=S)C(C)(C)C(c3ccc(OC)cc3)N2)cc1 (stereo not given) :: 12.5 µg/mL
CC1/C(=N/N2C(=O)CNC2=S)CC(c2ccc(F)cc2)NC1c1ccc(F)cc1 (stereo not given) :: 6.25 µg/mL
OC(Cn1cncn1)(Cn1cncn1)c1ccc(F)cc1F :: 50 µg/mL
Cc1ccc(C2CC(=NN3C(=O)CNC3=S)CC(c3ccc(C)cc3)N2)cc1 (stereo not given) :: 12.5 µg/mL
COc1ccc(C2CC(=NN3C(=O)CNC3=S)CC(c3ccc(OC)cc3)N2)cc1 (stereo not given) :: 12.5 µg/mL
CC1(C)/C(=N/N2C(=O)CNC2=S)CC(c2ccc(Cl)cc2)NC1c1ccc(Cl)cc1 (stereo not given) :: 50 µg/mL
O=C1CNC(=S)N1N=C1CC(c2ccc(F)cc2)NC(c2ccc(F)cc2)C1 (stereo not given) :: 50 µg/mL
O=C1CNC(=S)N1N=C1CC(c2ccc(Cl)cc2)NC(c2ccc(Cl)cc2)C1 (stereo not given) :: 50 µg/mL

Provide MIC values for the following items, in order.
1. COc1ccc(C2C/C(=N\N3C(=O)CNC3=S)C(C)C(c3ccc(OC)cc3)N2)cc1 (stereo not given)
2. Cc1ccc(C2C/C(=N\N3C(=O)CNC3=S)C(C)C(c3ccc(C)cc3)N2)cc1 (stereo not given)

Completion:
1: 50 µg/mL; 2: 50 µg/mL

---

For each of the molecules below, state its MIC.
- Test system: Escherichia coli
- assay name: Antibacterial activity against Escherichia coli after 24 hrs by twofold serial dilution method
- Assay type: functional
Give bare numbers, in µg/mL.

Answered cases to consult:
O=C1CNC(=S)N1N=C1CC(c2ccccc2)NC(c2ccccc2)C1 (stereo not given) :: 50
CC1(C)/C(=N/N2C(=O)CNC2=S)CC(c2ccc(F)cc2)NC1c1ccc(F)cc1 (stereo not given) :: 6.25
COc1ccc(C2CC(=NN3C(=O)CNC3=S)CC(c3ccc(OC)cc3)N2)cc1 (stereo not given) :: 50
O=C1CNC(=S)N1N=C1CC(c2ccc(Cl)cc2)NC(c2ccc(Cl)cc2)C1 (stereo not given) :: 12.5

Could you now consider this next molecule?
Prompt: I am curious: what MIC value has been reported for Cc1ccc(C2C/C(=N\N3C(=O)CNC3=S)C(C)C(c3ccc(C)cc3)N2)cc1 (stereo not given) ?
Completion: 50

---

- System: Candida
- assay name: Antifungal activity against Candida 51 after 72 to 96 hrs by twofold serial dilution method
- Format: functional
Exercise: for every item that follows, state its recorded MIC.
One number for each entry, in µg/mL.

Below: 5 compounds and their reported MIC.
O=C1CNC(=S)N1N=C1CC(c2ccccc2)NC(c2ccccc2)C1 (stereo not given) :: 100
O=C1CNC(=S)N1N=C1CC(c2ccc(F)cc2)NC(c2ccc(F)cc2)C1 (stereo not given) :: 50
Cc1ccc(C2C/C(=N\N3C(=O)CNC3=S)C(C)(C)C(c3ccc(C)cc3)N2)cc1 (stereo not given) :: 12.5
CC1(C)/C(=N/N2C(=O)CNC2=S)CC(c2ccc(Cl)cc2)NC1c1ccc(Cl)cc1 (stereo not given) :: 50
COc1ccc(C2C/C(=N\N3C(=O)CNC3=S)C(C)C(c3ccc(OC)cc3)N2)cc1 (stereo not given) :: 12.5

// each listed compound needs a value for MIC
1. COc1ccc(C2C/C(=N\N3C(=O)CNC3=S)C(C)(C)C(c3ccc(OC)cc3)N2)cc1 (stereo not given)
2. Cc1ccc(C2CC(=NN3C(=O)CNC3=S)CC(c3ccc(C)cc3)N2)cc1 (stereo not given)

Completion:
1: 6.25; 2: 6.25

For every listed record, write down its MIC.
1. OC(Cn1cncn1)(Cn1cncn1)c1ccc(F)cc1F
2. CC1/C(=N/N2C(=O)CNC2=S)CC(c2ccccc2)NC1c1ccccc1 (stereo not given)
3. CC1/C(=N/N2C(=O)CNC2=S)CC(c2ccc(Cl)cc2)NC1c1ccc(Cl)cc1 (stereo not given)

Completion:
25
50
12.5

---

Can you tell me MIC for the items I'm about to list?
- Test system: Candida
- assay name: Antifungal activity against Candida 6 after 72 to 96 hrs by twofold serial dilution method
- Assay type: functional
One number for each entry, in µg/mL.

O=C1CNC(=S)N1N=C1CC(c2ccc(Cl)cc2)NC(c2ccc(Cl)cc2)C1 (stereo unspecified) :: 12.5
O=C1CNC(=S)N1N=C1CC(c2ccc(F)cc2)NC(c2ccc(F)cc2)C1 (stereo unspecified) :: 50

Quick one: give me MIC for each item below, same order please.
1. CC1(C)/C(=N/N2C(=O)CNC2=S)CC(c2ccc(F)cc2)NC1c1ccc(F)cc1 (stereo unspecified)
2. CC1(C)/C(=N/N2C(=O)CNC2=S)CC(c2ccc(Cl)cc2)NC1c1ccc(Cl)cc1 (stereo unspecified)
3. OC(Cn1cncn1)(Cn1cncn1)c1ccc(F)cc1F [FLUCONAZOLE]
4. CC1(C)/C(=N/N2C(=O)CNC2=S)CC(c2ccccc2)NC1c1ccccc1 (stereo unspecified)
5. COc1ccc(C2C/C(=N\N3C(=O)CNC3=S)C(C)(C)C(c3ccc(OC)cc3)N2)cc1 (stereo unspecified)
6. CC1/C(=N/N2C(=O)CNC2=S)CC(c2ccccc2)NC1c1ccccc1 (stereo unspecified)
7. Cc1ccc(C2CC(=NN3C(=O)CNC3=S)CC(c3ccc(C)cc3)N2)cc1 (stereo unspecified)

Completion:
1. 50
2. 50
3. 25
4. 100
5. 25
6. 50
7. 6.25

Provide the reported MIC of each entry below, same order.
1. COc1ccc(C2C/C(=N\N3C(=O)CNC3=S)C(C)C(c3ccc(OC)cc3)N2)cc1 (stereo unspecified)
2. Cc1ccc(C2C/C(=N\N3C(=O)CNC3=S)C(C)(C)C(c3ccc(C)cc3)N2)cc1 (stereo unspecified)
3. O=C1CNC(=S)N1N=C1CC(c2ccccc2)NC(c2ccccc2)C1 (stereo unspecified)
4. CC1/C(=N/N2C(=O)CNC2=S)CC(c2ccc(Cl)cc2)NC1c1ccc(Cl)cc1 (stereo unspecified)
5. Cc1ccc(C2C/C(=N\N3C(=O)CNC3=S)C(C)C(c3ccc(C)cc3)N2)cc1 (stereo unspecified)
6. CC1/C(=N/N2C(=O)CNC2=S)CC(c2ccc(F)cc2)NC1c1ccc(F)cc1 (stereo unspecified)
7. COc1ccc(C2CC(=NN3C(=O)CNC3=S)CC(c3ccc(OC)cc3)N2)cc1 (stereo unspecified)

Completion:
1. 12.5
2. 6.25
3. 50
4. 50
5. 6.25
6. 12.5
7. 6.25
